test: Toxicity liver stage against HepG2, at 10uM; assay type: cell-based; design: test concentration 10 uM, cell line HepG2-A16-CD81EGFP; conditions: human, HepG2-A16-CD81EGFP cells; read-out: INHIBITION
Measured cytotoxicity at 10 µM values are reported for all entries that follow.
# number only, unit % dropped from output

Below, 5 compounds whose answers are already recorded.
{"columns": ["Compound", "Reading unit", "cytotoxicity at 10 µM"],
 "data": [
  ["CN1Cc2ccccc2CC2(CCN(C(=O)[C@H]3CCCO3)CC2)C1=O", "%", -113],
  ["Cc1cc(N2CCCCC2)c(C#N)c(C)n1", "%", -6.16],
  ["CCCc1cc(C(=O)N2CCC3(CCCN(CCO)C3=O)C2)cs1 (stereo unspecified)", "%", -144],
  ["CSc1ncc(CNC(C)c2cnn(-c3ccc(F)cc3F)c2C)cn1 (stereo unspecified)", "%", 2.77],
  ["COc1cccc(OCC(=O)N(C)c2cccnc2N(C)C)c1", "%", 0.102]
]}

Incoming: Report cytotoxicity at 10 µM for Cc1cccc(C(=O)N2CCN(C(=O)Cc3ccccn3)CC2)c1C please.
Outgoing: -12.3
